Kindly state MIC for each of the entries shown.
Tested on: Bacteria
Assay: Antibacterial activity against ESBL-producing bacteria assessed as bacterial growth inhibition
Assay type: functional
Numbers only, in µg/mL.

Example results:
CC(=O)c1c(C)nc(SCC(=O)Nc2ccc(OCc3ccc(F)cc3)cc2)n1-c1ccc(F)cc1 ... 250
CC(=O)c1c(C)nc(SCC(=O)Nc2ccc(OC(=O)c3ccco3)cc2)n1-c1ccc(F)cc1 ... 125
CC(=O)c1c(C)nc(SCC(=O)Nc2ccc(OC(=O)c3ccco3)cc2)n1-c1ccc(Br)cc1 ... 250
CC(=O)c1c(C)nc(SCC(=O)Nc2ccc(OCc3ccccc3)cc2)n1-c1ccc(F)cc1 ... 125
COc1ccc(-n2c(SCC(=O)Nc3ccc(OC(=O)c4cccs4)cc3)nc(C)c2C(C)=O)cc1 ... 62.5

# return recorded MIC for input COc1ccc(-n2c(SCC(=O)Nc3ccc(OCc4ccc(F)cc4)cc3)nc(C)c2C(C)=O)cc1
25

---

Test system: Aspergillus clavatus
Assay: Antifungal activity against Aspergillus clavatus MTCC 1323 assessed as fungal growth inhibition
Assay type: functional
reported_property: MFC (µg/mL)
Numbers only, in µg/mL.

CC(=O)c1c(C)nc(SCC(=O)Nc2ccc(OCc3ccc(F)cc3)cc2)n1-c1ccc(Cl)cc1 ... 1000
CC(=O)c1c(C)nc(SCC(=O)Nc2ccc(OCc3ccc(F)cc3)cc2)n1-c1ccc(F)cc1 ... 500
CC(=O)c1c(C)nc(SCC(=O)Nc2ccc(OCc3ccc(Cl)cc3)cc2)n1-c1ccccc1 ... 500

Now take the following compound into account.
# return recorded MFC for input CC(=O)c1c(C)nc(SCC(=O)Nc2ccc(OC(=O)c3ccco3)cc2)n1-c1ccc(F)cc1
500

---

Kindly state MIC for each of the entries shown.
System: Mycobacterium tuberculosis
Assay: Antibacterial activity against Mycobacterium tuberculosis H37Rv assessed as bacterial growth inhibition
Assay type: functional
One number for each entry, in µg/mL.

Here are 5 molecules. What values of MIC were reported for them?
1. COc1ccc(-n2c(SCC(=O)Nc3ccc(OC(=O)c4cccs4)cc3)nc(C)c2C(C)=O)cc1
2. CC(=O)c1c(C)nc(SCC(=O)Nc2ccc(OCc3ccc(Cl)cc3)cc2)n1-c1ccc(Cl)cc1
3. CC(=O)c1c(C)nc(SCC(=O)Nc2ccc(OCc3ccc(Cl)cc3)cc2)n1-c1ccccc1
4. CC(=O)c1c(C)nc(SCC(=O)Nc2ccc(OCc3ccccc3)cc2)n1-c1ccc(F)cc1
5. CC(=O)c1c(C)nc(SCC(=O)Nc2ccc(OCc3ccc(F)cc3)cc2)n1-c1ccc(F)cc1

1. 25
2. 25
3. 12.5
4. 62.5
5. 100

# return recorded MIC for input COc1ccc(-n2c(SCC(=O)Nc3ccc(OCc4ccc(F)cc4)cc3)nc(C)c2C(C)=O)cc1
50

---

System: Enterococcus
Assay: Antibacterial activity against vancomycin-resistant Enterococcus assessed as inhibition of bacterial growth
Format: functional
Kindly state MIC for each of the entries shown.
// unit must come after the numeric part

Example results:
CC(=O)c1c(C)nc(SCC(=O)Nc2ccc(OCc3ccc(Cl)cc3)cc2)n1-c1ccccc1 ... 100 µg/mL
CC(=O)c1c(C)nc(SCC(=O)Nc2ccc(OCc3ccc(F)cc3)cc2)n1-c1ccc(F)cc1 ... 125 µg/mL
CC(=O)c1c(C)nc(SCC(=O)Nc2ccc(OCc3ccc(F)cc3)cc2)n1-c1ccc(Cl)cc1 ... 62.5 µg/mL
CC(=O)c1c(C)nc(SCC(=O)Nc2ccc(OC(=O)c3cccs3)cc2)n1-c1ccc(F)cc1 ... 125 µg/mL

Print Enterococcus MIC for COc1ccc(-n2c(SCC(=O)Nc3ccc(OC(=O)c4cccs4)cc3)nc(C)c2C(C)=O)cc1 .
100 µg/mL

---

Tested on: Bacteria
Test: Antibacterial activity against ESBL-producing bacteria assessed as bacterial growth inhibition
Type: functional
reported_property: MIC (µg/mL)
Numbers only, in µg/mL.

Example results:
CC(=O)c1c(C)nc(SCC(=O)Nc2ccc(OCc3ccc(Cl)cc3)cc2)n1-c1ccc(Cl)cc1 ... 500
COc1ccc(COc2ccc(NC(=O)CSc3nc(C)c(C(C)=O)n3-c3ccc(Br)cc3)cc2)cc1 ... 250
COc1ccc(-n2c(SCC(=O)Nc3ccc(OC(=O)c4ccco4)cc3)nc(C)c2C(C)=O)cc1 ... 500
CC(=O)c1c(C)nc(SCC(=O)Nc2ccc(OCc3ccccc3)cc2)n1-c1ccccc1 ... 250
CC(=O)c1c(C)nc(SCC(=O)Nc2ccc(OC(=O)c3ccc(Cl)cc3)cc2)n1-c1ccc(Cl)cc1 ... 1000

Here are 2 compounds. What values of MIC were reported for them?
1. CC(=O)c1c(C)nc(SCC(=O)Nc2ccc(OCc3ccc(F)cc3)cc2)n1-c1ccc(Cl)cc1
2. CC(=O)c1c(C)nc(SCC(=O)Nc2ccc(OCc3ccc(Cl)cc3)cc2)n1-c1ccccc1

1. 62.5
2. 125

Here are 2 compounds. What values of MIC were reported for them?
1. CC(=O)c1c(C)nc(SCC(=O)Nc2ccc(OC(=O)c3cccs3)cc2)n1-c1ccc(F)cc1
2. CC(=O)c1c(C)nc(SCC(=O)Nc2ccc(OC(=O)c3ccc(Cl)cc3)cc2)n1-c1ccc(Br)cc1

1: 125; 2: 250

---

Test system: Staphylococcus aureus
Experiment: Antibacterial activity against Staphylococcus aureus MTCC 96 assessed as bacterial growth inhibition
Format: functional
Binary call on MIC with cut-off 100 µg/mL: strictly below means Criterion met, and equality or higher means Criterion not met.

Use these answered entries as a reference point.
CC(=O)c1c(C)nc(SCC(=O)Nc2ccc(OC(=O)c3cccs3)cc2)n1-c1ccc(F)cc1 ... Criterion not met
O=C(N[C@H](CO)[C@H](O)c1ccc([N+](=O)[O-])cc1)C(Cl)Cl ... Criterion met
CC(=O)c1c(C)nc(SCC(=O)Nc2ccc(OC(=O)c3ccco3)cc2)n1-c1ccc(F)cc1 ... Criterion not met

is_below(MIC, 100 µg/mL) for CC(=O)c1c(C)nc(SCC(=O)Nc2ccc(OCc3ccc(Cl)cc3)cc2)n1-c1ccccc1 ?
Criterion not met

is_below(MIC, 100 µg/mL) for COc1ccc(COc2ccc(NC(=O)CSc3nc(C)c(C(C)=O)n3-c3ccc(Br)cc3)cc2)cc1 ?
Criterion not met

---

System: Enterococcus
Assay: Antibacterial activity against vancomycin-resistant Enterococcus assessed as inhibition of bacterial growth
Type: functional
reported_property: MIC (µg/mL)
Numbers only, in µg/mL.

Example results:
CC(=O)c1c(C)nc(SCC(=O)Nc2ccc(OCc3ccccc3)cc2)n1-c1ccccc1 ... 500
CC(=O)c1c(C)nc(SCC(=O)Nc2ccc(OC(=O)c3ccco3)cc2)n1-c1ccc(Br)cc1 ... 250
CC(=O)c1c(C)nc(SCC(=O)Nc2ccc(OC(=O)c3ccco3)cc2)n1-c1ccc(F)cc1 ... 500

Here are 6 molecules. What values of MIC were reported for them?
1. CC(=O)c1c(C)nc(SCC(=O)Nc2ccc(OCc3ccccc3)cc2)n1-c1ccc(F)cc1
2. COc1ccc(COc2ccc(NC(=O)CSc3nc(C)c(C(C)=O)n3-c3ccc(Br)cc3)cc2)cc1
3. CC(=O)c1c(C)nc(SCC(=O)Nc2ccc(OCc3ccc(Cl)cc3)cc2)n1-c1ccc(Cl)cc1
4. COc1ccc(-n2c(SCC(=O)Nc3ccc(OC(=O)c4ccco4)cc3)nc(C)c2C(C)=O)cc1
5. COc1ccc(-n2c(SCC(=O)Nc3ccc(OCc4ccc(F)cc4)cc3)nc(C)c2C(C)=O)cc1
6. CC(=O)c1c(C)nc(SCC(=O)Nc2ccc(OC(=O)c3ccc(Cl)cc3)cc2)n1-c1ccc(Br)cc1

250
250
500
250
100
500

---

Kindly state Activity for each of the entries shown.
Assay: Antioxidant activity assessed as nitric oxide radical scavenging activity at 100 ug/ml (reference value: 25.8 to 41.6 %)
Assay type: functional
Details: dose 100.0 µg/ml
// unit must come after the numeric part

Example results:
CC(=O)c1c(C)nc(SCC(=O)Nc2ccc(OCc3ccc(Cl)cc3)cc2)n1-c1ccccc1 ... 88.4%
O=C1O[C@H]([C@@H](O)CO)C(O)=C1O ... 91.7%
CC(=O)c1c(C)nc(SCC(=O)Nc2ccc(OCc3ccccc3)cc2)n1-c1ccc(F)cc1 ... 85.9%
CC(=O)c1c(C)nc(SCC(=O)Nc2ccc(OC(=O)c3cccs3)cc2)n1-c1ccc(F)cc1 ... 89.1%
COc1ccc(COc2ccc(NC(=O)CSc3nc(C)c(C(C)=O)n3-c3ccc(Br)cc3)cc2)cc1 ... 84.3%
COc1ccc(-n2c(SCC(=O)Nc3ccc(OC(=O)c4cccs4)cc3)nc(C)c2C(C)=O)cc1 ... 81.7%
CC(=O)c1c(C)nc(SCC(=O)Nc2ccc(OCc3ccc(F)cc3)cc2)n1-c1ccc(F)cc1 ... 89.6%
CC(=O)c1c(C)nc(SCC(=O)Nc2ccc(OC(=O)c3ccc(Cl)cc3)cc2)n1-c1ccc(Br)cc1 ... 90.8%
CC(=O)c1c(C)nc(SCC(=O)Nc2ccc(OCc3ccc(F)cc3)cc2)n1-c1ccc(Cl)cc1 ... 89.5%
CC(=O)c1c(C)nc(SCC(=O)Nc2ccc(OCc3ccccc3)cc2)n1-c1ccccc1 ... 87.4%

Here are 3 compounds. What values of Activity were reported for them?
1. CC(=O)c1c(C)nc(SCC(=O)Nc2ccc(OC(=O)c3ccco3)cc2)n1-c1ccc(F)cc1
2. CC(=O)c1c(C)nc(SCC(=O)Nc2ccc(OCc3ccc(Cl)cc3)cc2)n1-c1ccc(Cl)cc1
3. CC(=O)c1c(C)nc(SCC(=O)Nc2ccc(OC(=O)c3ccco3)cc2)n1-c1ccc(Br)cc1

1. 81.7%
2. 88.8%
3. 86.7%

Here are 3 compounds. What values of Activity were reported for them?
1. CC(=O)c1c(C)nc(SCC(=O)Nc2ccc(OC(=O)c3ccc(Cl)cc3)cc2)n1-c1ccc(Cl)cc1
2. COc1ccc(-n2c(SCC(=O)Nc3ccc(OC(=O)c4ccco4)cc3)nc(C)c2C(C)=O)cc1
3. COc1ccc(-n2c(SCC(=O)Nc3ccc(OCc4ccc(F)cc4)cc3)nc(C)c2C(C)=O)cc1

1: 89.4%; 2: 84.5%; 3: 90.5%
